experimental.system: cGMP-dependent protein kinase 1 (Homo sapiens, UniProt Q13976); also: in the data inactive means no Kd found up to 30 µM
Active and inactive are the calls of the source.
Use one of these outcomes when replying: true (active), false (inactive)

Worked set:
> print(dat)
                                   compound                       experimental.system  assigned.class
1  Cc1csc(-c2nnc(Nc3ccc(Oc4ncccc4-c4ccnc(N)n4)cc3)c3ccccc23)c1 [AMG-900]  cGMP-dependent protein kinase 1 (Homo sapiens, UniProt Q13976)           false
2  Cc1nc2cc(-c3nn(C(C)C)c4ncnc(N)c34)ccc2o1  cGMP-dependent protein kinase 1 (Homo sapiens, UniProt Q13976)           false
3  O=C(Nc1cc(C(F)(F)F)cc(C(F)(F)F)c1)c1cc(Cl)ccc1O [IMD-0354]  cGMP-dependent protein kinase 1 (Homo sapiens, UniProt Q13976)           false
4  Cc1cc(Nc2ncnc3ccc(NC4=NC(C)(C)CO4)cc23)ccc1Oc1ccn2ncnc2c1 [TUCATINIB]  cGMP-dependent protein kinase 1 (Homo sapiens, UniProt Q13976)           false
5  Cc1cnc(NC(=O)Nc2cc(Br)c(C)cc2OC[C@@H]2CNCCO2)cn1 [RABUSERTIB]  cGMP-dependent protein kinase 1 (Homo sapiens, UniProt Q13976)           false
6  Cn1cc(-c2cnc3ccc4ccc(CS(=O)(=O)NCc5ccccn5)cc4c(=O)c3c2)cn1 [MK-8033]  cGMP-dependent protein kinase 1 (Homo sapiens, UniProt Q13976)           false

In this assay, the call recorded for CCS(=O)(=O)c1cccc(-c2cc(C(=O)NC3CCN(C)CC3)c(C)c3[nH]c4ncc(C)cc4c23)c1 [TAK-901] was what? false

In this assay, the call recorded for Cn1cnc2c(F)c(Nc3ccc(Br)cc3F)c(C(=O)NOCCO)cc21 [BINIMETINIB] was what? false

In this assay, the call recorded for FC(F)(F)c1ccc(/C=C/c2nc(COc3ccc(CCCCn4ccnn4)cc3)co2)cc1 [MUBRITINIB] was what? false

====

experimental.system: Bone morphogenetic protein receptor type-1B (Homo sapiens); also: in the data inactive means no Kd found up to 30 µM
Sequence (O00238 whole entry): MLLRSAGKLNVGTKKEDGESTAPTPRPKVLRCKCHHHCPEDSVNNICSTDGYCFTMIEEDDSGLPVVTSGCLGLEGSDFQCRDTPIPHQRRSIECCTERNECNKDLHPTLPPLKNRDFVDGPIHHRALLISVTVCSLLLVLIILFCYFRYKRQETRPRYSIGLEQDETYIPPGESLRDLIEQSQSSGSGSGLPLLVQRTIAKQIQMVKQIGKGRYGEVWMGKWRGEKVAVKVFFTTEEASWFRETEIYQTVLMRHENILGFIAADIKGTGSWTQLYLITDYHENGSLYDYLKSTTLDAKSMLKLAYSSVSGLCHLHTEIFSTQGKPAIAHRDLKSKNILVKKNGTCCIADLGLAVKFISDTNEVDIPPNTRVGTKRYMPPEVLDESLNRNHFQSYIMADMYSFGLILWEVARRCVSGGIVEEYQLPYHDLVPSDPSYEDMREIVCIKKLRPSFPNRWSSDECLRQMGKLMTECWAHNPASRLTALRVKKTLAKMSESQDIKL
The source made the active and inactive calls.
Use one of these outcomes when replying: 1 = active, -1 = inactive

Worked set:
> print(dat)
                                   compound  assigned.class
1  C=CC(=O)Nc1cc2c(Nc3ccc(F)c(Cl)c3)ncnc2cc1C#CC(C)(C)N1CCN(C)CC1 [AV-412 FREE BASE]              -1
2  Cc1nc2cc(-c3nn(C(C)C)c4ncnc(N)c34)ccc2o1               1
3  CC(=O)NCC(=O)N1[C@@H]2CC[C@H]1c1ccc(Nc3ncc(C(F)(F)F)c(NC4CCC4)n3)cc12 [PF-03814735]              -1

Moving on to the next compound.
In this assay, the call recorded for CCOc1cc2ncc(C#N)c(Nc3ccc(F)c(Cl)c3)c2cc1NC(=O)/C=C/CN(C)C [PELITINIB] was what? -1

====

experimental.system: Serine/threonine-protein kinase D3 (Homo sapiens); also: in the data inactive means no Kd found up to 30 µM
Sequence (O94806 whole entry): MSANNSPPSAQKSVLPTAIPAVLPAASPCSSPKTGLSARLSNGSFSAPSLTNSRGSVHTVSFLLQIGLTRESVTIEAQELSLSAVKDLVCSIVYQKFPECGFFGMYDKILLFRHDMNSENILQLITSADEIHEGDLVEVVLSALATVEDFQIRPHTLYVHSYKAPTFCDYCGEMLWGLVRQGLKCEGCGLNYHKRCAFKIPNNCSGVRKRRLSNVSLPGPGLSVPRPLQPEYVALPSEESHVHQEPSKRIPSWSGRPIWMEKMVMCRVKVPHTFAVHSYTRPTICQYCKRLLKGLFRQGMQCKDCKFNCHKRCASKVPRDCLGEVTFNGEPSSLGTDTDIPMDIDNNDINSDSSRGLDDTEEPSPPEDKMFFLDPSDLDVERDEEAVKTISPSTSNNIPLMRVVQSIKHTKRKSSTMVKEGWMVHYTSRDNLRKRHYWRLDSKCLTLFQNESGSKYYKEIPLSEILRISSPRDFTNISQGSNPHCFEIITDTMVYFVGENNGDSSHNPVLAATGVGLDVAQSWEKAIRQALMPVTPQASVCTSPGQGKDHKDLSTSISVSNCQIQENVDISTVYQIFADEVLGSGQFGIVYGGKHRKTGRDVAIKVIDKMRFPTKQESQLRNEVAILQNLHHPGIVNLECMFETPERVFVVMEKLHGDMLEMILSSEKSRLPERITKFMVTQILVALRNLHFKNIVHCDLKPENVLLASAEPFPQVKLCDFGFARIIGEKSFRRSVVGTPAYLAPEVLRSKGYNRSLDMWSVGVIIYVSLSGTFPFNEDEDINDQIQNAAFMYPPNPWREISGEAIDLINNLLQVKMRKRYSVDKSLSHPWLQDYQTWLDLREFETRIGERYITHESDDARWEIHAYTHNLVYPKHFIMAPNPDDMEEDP
Counter-ions that a name gives are not always drawn. Activity calls are given as the source filed them.
metric.name: Kd

Sample records with Kd:
> print(dat)
                                   compound                       experimental.system  metric.name              result
1  CCCCCCCCCCCCCCCCCCOP(=O)([O-])OC1CC[N+](C)(C)CC1 [PERIFOSINE]  Serine/threonine-protein kinase D3 (Homo sapiens)           Kd  > 30 µM (inactive)
2  CCS(=O)(=O)N1CCN(c2ccc(Nc3ncc(C(N)=O)c(NC4CC4)n3)cc2)CC1 [Cerdulatinib Hydrochloride]  Serine/threonine-protein kinase D3 (Homo sapiens)           Kd    1.06 µM (active)
3  CNC(=O)c1cccc2cc(Oc3ccnc4cc(OCC5(N)CC5)c(OC)cc34)ccc12 [LUCITANIB]  Serine/threonine-protein kinase D3 (Homo sapiens)           Kd  > 30 µM (inactive)

Quote Serine/threonine-protein kinase D3 (Homo sapiens) Kd for entry Nc1ncnc2c1c(-c1cccc(OCc3ccccc3)c1)cn2[C@H]1C[C@@H](CN2CCC2)C1 [AEW-541] . > 30 µM (inactive)

====

experimental.system: cGMP-dependent protein kinase 1 (Homo sapiens, UniProt Q13976); also: in the data inactive means no Kd found up to 30 µM
Sequence (Q13976 whole entry): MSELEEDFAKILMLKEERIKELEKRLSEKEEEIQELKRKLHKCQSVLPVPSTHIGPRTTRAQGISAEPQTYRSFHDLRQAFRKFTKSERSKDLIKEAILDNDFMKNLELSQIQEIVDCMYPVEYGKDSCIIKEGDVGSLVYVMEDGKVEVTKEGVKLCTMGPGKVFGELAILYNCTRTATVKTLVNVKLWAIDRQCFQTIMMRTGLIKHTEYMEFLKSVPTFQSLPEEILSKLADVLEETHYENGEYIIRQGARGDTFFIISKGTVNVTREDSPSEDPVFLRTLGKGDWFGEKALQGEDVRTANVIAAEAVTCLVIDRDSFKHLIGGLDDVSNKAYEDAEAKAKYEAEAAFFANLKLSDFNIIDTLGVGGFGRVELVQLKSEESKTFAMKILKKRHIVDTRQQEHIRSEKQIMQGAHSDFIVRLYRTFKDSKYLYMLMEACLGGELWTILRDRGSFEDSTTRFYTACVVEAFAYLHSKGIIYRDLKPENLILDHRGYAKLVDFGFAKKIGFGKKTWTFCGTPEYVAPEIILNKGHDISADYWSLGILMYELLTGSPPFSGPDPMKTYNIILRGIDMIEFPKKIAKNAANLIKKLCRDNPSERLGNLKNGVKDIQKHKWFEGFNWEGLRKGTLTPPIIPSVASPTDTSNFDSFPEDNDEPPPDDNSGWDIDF
Structures can show the parent of a compound that is named as a salt. Activity calls are given as the source filed them.
Use one of these outcomes when replying: active, inactive

Worked set:
> print(dat)
                                   molecule  assigned.class
1  Cc1nc(NC(=O)N2CCC[C@H]2C(N)=O)sc1-c1ccnc(C(C)(C)C(F)(F)F)c1        inactive
2  C[C@@H](N)c1ccc(C(=O)Nc2ccnc3[nH]ccc23)cc1        inactive

In this assay, the call recorded for `C=CC(=O)N1CCC[C@H](n2c(=O)n(-c3ccc(Oc4ccccc4)cc3)c3c(N)ncnc32)C1` was what? inactive

In this assay, the call recorded for `CN1C/C=C/CCOc2cccc(c2)-c2ccnc(n2)Nc2cccc(c2)C1` was what? inactive

In this assay, the call recorded for `Cc1nc(Nc2n[nH]c3c2CN(C(=O)N[C@H](CN(C)C)c2ccccc2)C3(C)C)c2sccc2n1` was what? active

In this assay, the call recorded for `COCc1c(-c2ccc(NC(=O)Nc3cc(C(F)(F)F)ccc3F)c(F)c2)c2c(N)ncnn2c1CN1CCOCC1` was what? inactive

In this assay, the call recorded for CCS(=O)(=O)N1CCN(c2ccc(Nc3ncc(C(N)=O)c(NC4CC4)n3)cc2)CC1 [Cerdulatinib Hydrochloride] was what? inactive

In this assay, the call recorded for `O=C(Cc1ccc(-c2ccc(OCCN3CCOCC3)cc2)cn1)NCc1ccccc1` was what? inactive

In this assay, the call recorded for `CCNC(=O)C#Cc1ccc2c(c1)NC(=O)/C2=C(\Nc1ccc(CN(C)C)cc1)c1ccccc1` was what? inactive

Each recorded value in this set is attributed to ChEMBL document CHEMBL3991601.
